Reference for the values: ChEMBL document CHEMBL2218924

- Target or test system: Receptor tyrosine-protein kinase erbB-4 (Homo sapiens) (UniProt Q15303)
- Sequence (Q15303 whole entry): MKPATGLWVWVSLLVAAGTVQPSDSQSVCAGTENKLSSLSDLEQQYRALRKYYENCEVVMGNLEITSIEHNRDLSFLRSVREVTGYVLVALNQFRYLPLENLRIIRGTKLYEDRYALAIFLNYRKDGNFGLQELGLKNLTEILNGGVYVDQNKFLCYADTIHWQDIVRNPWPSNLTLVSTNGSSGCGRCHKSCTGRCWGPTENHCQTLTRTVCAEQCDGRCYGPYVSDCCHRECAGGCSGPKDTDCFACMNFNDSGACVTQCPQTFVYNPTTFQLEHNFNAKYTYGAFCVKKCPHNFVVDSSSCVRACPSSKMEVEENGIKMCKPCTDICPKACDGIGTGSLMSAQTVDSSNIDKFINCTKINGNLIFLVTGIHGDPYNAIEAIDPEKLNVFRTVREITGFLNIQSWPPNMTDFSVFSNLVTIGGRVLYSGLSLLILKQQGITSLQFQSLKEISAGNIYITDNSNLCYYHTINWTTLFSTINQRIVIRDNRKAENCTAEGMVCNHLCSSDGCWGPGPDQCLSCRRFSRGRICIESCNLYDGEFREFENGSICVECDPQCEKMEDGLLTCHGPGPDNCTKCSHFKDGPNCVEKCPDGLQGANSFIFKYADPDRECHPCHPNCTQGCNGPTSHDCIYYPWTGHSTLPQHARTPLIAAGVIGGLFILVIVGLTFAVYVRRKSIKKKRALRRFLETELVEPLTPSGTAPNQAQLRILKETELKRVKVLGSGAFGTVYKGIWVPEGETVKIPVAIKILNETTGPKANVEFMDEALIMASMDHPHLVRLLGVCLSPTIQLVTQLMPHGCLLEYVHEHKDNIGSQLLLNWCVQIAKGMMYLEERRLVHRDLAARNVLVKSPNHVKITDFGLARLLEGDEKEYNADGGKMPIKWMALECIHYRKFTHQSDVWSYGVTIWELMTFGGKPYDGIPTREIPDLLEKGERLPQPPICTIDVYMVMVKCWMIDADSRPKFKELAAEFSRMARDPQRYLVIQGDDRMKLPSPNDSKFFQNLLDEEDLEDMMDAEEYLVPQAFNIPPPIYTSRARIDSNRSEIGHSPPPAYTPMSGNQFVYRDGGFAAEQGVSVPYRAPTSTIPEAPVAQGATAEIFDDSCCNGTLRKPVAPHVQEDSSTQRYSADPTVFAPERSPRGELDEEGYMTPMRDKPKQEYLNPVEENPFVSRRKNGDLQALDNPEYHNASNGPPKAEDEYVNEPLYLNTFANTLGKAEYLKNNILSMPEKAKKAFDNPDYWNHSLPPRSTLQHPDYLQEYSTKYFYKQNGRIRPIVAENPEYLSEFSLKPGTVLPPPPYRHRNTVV
- Conditions used: at 1 µM
Quick reference: residual activity of the listed items.
Write the value in % as a bare number.

A selection of reference data follows.
O=c1cc(N2CCOCC2)oc2c(-c3ccccc3)cccc12 79
O=C1NC(=O)C(c2cn(CCCn3ccnc3)c3ccccc23)=C1Nc1ccccc1 70
O=C(c1cc2cc(O)ccc2[nH]1)c1cc2cc(O)ccc2[nH]1 73
O=C(c1ccccc1)c1ccc(N2CCOCC2)cc1O 95
CN(C)S(=O)(=O)c1ccc2c(c1)/C(=C/c1cc3c([nH]1)CCCC3)C(=O)N2 88

State its residual activity on Receptor tyrosine-protein kinase erbB-4 (Homo sapiens) (UniProt Q15303): CCCC(=O)Oc1ccc2[nH]c(C(=O)c3cc4ccccc4[nH]3)cc2c1
81

State its residual activity on Receptor tyrosine-protein kinase erbB-4 (Homo sapiens) (UniProt Q15303): O=c1cc(N2CCNCC2)oc2c(-c3ccccc3)cccc12
95

State its residual activity on Receptor tyrosine-protein kinase erbB-4 (Homo sapiens) (UniProt Q15303): COc1cc2ncnc(Nc3cccc(Cl)c3)c2cc1OC
35
